As shown below, each of these molecules has a reported fold change value.
- protocol description: sensitizers of A549 cells to miR-34 induction, primary screen, imaging, A549 dox-inducible miR-34, nuclei and caspase counts (AID 1347080)
- test settings: A549 miR-34 inducible, Hoechst nuclei count, 48 h; measured here: relative caspase fold change +Dox/-Dox
observed property: fold change

molecule	observed property	observed result
NCCCCC(=O)O	fold change	1.48
CCOC(=O)[C@H](CCc1ccccc1)N[C@@H](C)C(=O)N1Cc2cc(OC)c(OC)cc2C[C@H]1C(=O)O	fold change	1.79
CC(=O)OCC(=O)[C@@]1(O)CC[C@H]2[C@@H]3C[C@H](C)C4=CC(=O)C=C[C@]4(C)[C@H]3[C@@H](O)C[C@@]21C	fold change	1.01
O=C(O)Cc1ccc(OCCNC[C@H](O)c2ccccc2)cc1	fold change	2.1
NCCCC(N)(C(=O)O)C(F)F (stereo not given)	fold change	0.834
OCc1ccccc1O[C@@H]1O[C@H](CO)[C@@H](O)[C@H](O)[C@H]1O	fold change	2.93
COC(=O)C1=C(C#N)NC(C)=C(C(=O)OC(C)C)C1c1cccc([N+](=O)[O-])c1 (stereo not given)	fold change	0.643
O=C(/C=C/c1ccc(O)cc1)c1ccc(O)cc1O	fold change	0.85
COc1cc(C(=O)N2CCOCC2)cc(OC)c1OC	fold change	1.55
CC(=O)O[C@]1(C(C)=O)CC[C@H]2[C@@H]3C[C@H](C)C4=CC(=O)CC[C@]4(C)[C@H]3CC[C@@]21C	fold change	1.75

* * *

- protocol description: stimulators of nuclear beta-catenin in C2C12, primary screen, imaging, WNT3A-conditioned medium, mouse C2C12, NPC library (AID 1117326); note: reference of the scale not given here
- test settings: at 10 µM, stronger effect = higher value
observed property: nuclear beta-catenin stimulation (%)

molecule	observed result
CCOC(=O)c1c(C)n(C)c2ccc(O)cc12	0.7
CN(C)CCOC1=Cc2ccccc2Sc2ccc(Cl)cc21	31.6
COCCOC(=O)C1=C(C)NC(C)=C(C(=O)OC/C=C/c2ccccc2)C1c1cccc([N+](=O)[O-])c1 (stereo not given)	2.6
COc1ccccc1Oc1c(NS(=O)(=O)c2ccc(C(C)(C)C)cc2)nc(-c2ncccn2)nc1OCCO	-2.1
CCCCCCCCOc1ccccc1C(=O)Nc1ccc(C(=O)OCC[N+](C)(CC)CC)cc1	4.2
COc1ccc(-c2cc(=S)ss2)cc1	-1.5
C[C@]12CCC(=O)C=C1[C@@H]1C[C@@H]1[C@H]1[C@@H]3[C@@H]4C[C@@H]4[C@@]4(CCC(=O)O4)[C@@]3(C)CC[C@@H]12	1.8
CN(c1nccc(=O)[nH]1)C1CCN(c2nc3ccccc3n2Cc2ccc(F)cc2)CC1	-1.9
Cc1c(N)c(=O)n(-c2ccccc2)n1C	1.1
O=[N+]([O-])c1cncn1CCN1CCOCC1	-1.1
C=C1C[C@H]2[C@@H]3C=C(C)C4=CC(=O)CC[C@]4(C)[C@H]3CC[C@]2(C)[C@@]1(OC(C)=O)C(C)=O	-0.2
CCCCOc1cc(C(=O)OCCN(CC)CC)ccc1N	1.9
CCOC(=O)[C@H](CCc1ccccc1)N[C@@H](C)C(=O)N1Cc2cc(OC)c(OC)cc2C[C@H]1C(=O)O	-0.5
COC(=O)[C@@H]1CC2=CC(=O)CC[C@]2(C)[C@@]23O[C@@H]2C[C@@]2(C)[C@@H](CC[C@@]24CCC(=O)O4)[C@H]13	-0.1
CCCCc1cc2ccccc2c(OCCN(C)C)n1	0.2
CC(C)(C)C(=O)C(Oc1ccc(Cl)cc1)n1ccnc1 (stereo not given)	2.6
O=C(O)CN(CC(=O)O)Cc1cc2c(-c3ccccc3C(=O)O)c3cc(CN(CC(=O)O)CC(=O)O)c(=O)cc-3oc2cc1O	-1.1
S=C=Nc1ccc(N=C=S)cc1	16.4
CC(C)OC(=O)OCOP(=O)(CO[C@H](C)Cn1cnc2c(N)ncnc21)OCOC(=O)OC(C)C	6.3
CC(C)(C)C(=O)Oc1ccc(S(=O)(=O)Nc2ccccc2C(=O)NCC(=O)O)cc1	0.7
O=C(O)c1cc(=O)[nH]c(=O)[nH]1	2.7
O=C(Nc1ccc(C(=O)O)c(O)c1)c1ccccc1	0.3
COC(=O)C1=C(C)NC(C)=C(C(=O)OC(C)(C)CN(C)CCC(c2ccccc2)c2ccccc2)C1c1cccc([N+](=O)[O-])c1 (stereo not given)	22.4
O=C(O)CCc1nc2ccccc2[nH]1	2.8
CCCNC(C)(C)COC(=O)c1ccccc1	0.1
